- assay system: porcine DPP-IV (Sus scrofa)
- Sequence (P22411 whole entry): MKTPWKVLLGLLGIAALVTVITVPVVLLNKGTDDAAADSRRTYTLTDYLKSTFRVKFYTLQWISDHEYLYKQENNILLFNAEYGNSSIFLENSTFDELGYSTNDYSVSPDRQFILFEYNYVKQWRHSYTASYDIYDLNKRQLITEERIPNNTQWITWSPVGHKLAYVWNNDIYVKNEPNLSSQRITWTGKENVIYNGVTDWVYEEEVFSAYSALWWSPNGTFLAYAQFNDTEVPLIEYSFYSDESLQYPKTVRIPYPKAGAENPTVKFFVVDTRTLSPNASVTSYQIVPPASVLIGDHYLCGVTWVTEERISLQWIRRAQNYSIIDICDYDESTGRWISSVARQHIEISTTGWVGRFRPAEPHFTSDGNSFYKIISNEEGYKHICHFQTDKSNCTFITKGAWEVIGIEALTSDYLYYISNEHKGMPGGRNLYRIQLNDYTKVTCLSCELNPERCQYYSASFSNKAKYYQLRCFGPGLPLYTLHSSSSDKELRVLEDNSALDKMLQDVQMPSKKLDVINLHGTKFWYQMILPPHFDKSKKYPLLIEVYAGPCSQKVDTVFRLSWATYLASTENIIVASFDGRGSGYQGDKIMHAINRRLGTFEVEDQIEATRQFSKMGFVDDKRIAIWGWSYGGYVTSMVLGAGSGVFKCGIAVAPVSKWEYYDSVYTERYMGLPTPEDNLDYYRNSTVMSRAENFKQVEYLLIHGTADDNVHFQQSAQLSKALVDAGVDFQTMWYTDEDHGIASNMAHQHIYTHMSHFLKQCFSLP
- protocol summary: Stability of peptides to hydrolysis by DPP-IV (LC-MS/MS)
- condition parameters: peptide at 1/4 of IC50, 30 min at 37°C, Tris-HCl buffer pH 8.0
Residues, ends and D or L forms follow the SMILES beside them.
reported endpoint: Peptide hydrolyzed by DPP-IV

- compound: "N[C@@H](Cc1ccccc1)C(=O)N1CCC[C@H]1C(=O)N[C@@H](Cc1c[nH]c2ccccc12)C(=O)O [FPW, Phe-Pro-Trp] (H-Phe-Pro-Trp-OH; N-terminus and C-terminus assumed)"
  Peptide hydrolyzed by DPP-IV: "YES"
- compound: "N[C@@H](Cc1c[nH]c2ccccc12)C(=O)N1CCC[C@H]1C(=O)N[C@@H](Cc1c[nH]c2ccccc12)C(=O)O [WPW, Trp-Pro-Trp] (H-Trp-Pro-Trp-OH; N-terminus and C-terminus assumed)"
  Peptide hydrolyzed by DPP-IV: "YES"
- compound: "N[C@@H](Cc1c[nH]c2ccccc12)C(=O)N1CCC[C@H]1C(=O)N[C@@H](Cc1ccccc1)C(=O)O [WPF, Trp-Pro-Phe] (H-Trp-Pro-Phe-OH; N-terminus and C-terminus assumed)"
  Peptide hydrolyzed by DPP-IV: "YES"
- compound: "N[C@@H](Cc1ccccc1)C(=O)N1CCC[C@H]1C(=O)N[C@@H](Cc1ccccc1)C(=O)O [FPF, Phe-Pro-Phe] (H-Phe-Pro-Phe-OH; N-terminus and C-terminus assumed)"
  Peptide hydrolyzed by DPP-IV: "YES"

Query :: Which Peptide hydrolyzed by DPP-IV value belongs to C[C@H](NC(=O)[C@@H]1CCCN1C(=O)[C@@H](N)CCCCN)C(=O)O [KPA, Lys-Pro-Ala] (H-Lys-Pro-Ala-OH; N-terminus and C-terminus assumed) ?
Result :: NO

Query :: Which Peptide hydrolyzed by DPP-IV value belongs to CC[C@H](C)[C@H](N)C(=O)N1CCC[C@H]1C(=O)N[C@@H](C)C(=O)O [IPA, Ile-Pro-Ala] (H-Ile-Pro-Ala-OH; N-terminus and C-terminus assumed) ?
Result :: NO

Query :: Which Peptide hydrolyzed by DPP-IV value belongs to C[C@H](N)C(=O)N1CCC[C@H]1C(=O)N[C@@H](C)C(=O)O [APA, Ala-Pro-Ala] (H-Ala-Pro-Ala-OH; N-terminus and C-terminus assumed) ?
Result :: NO

Query :: Which Peptide hydrolyzed by DPP-IV value belongs to C[C@H](N)C(=O)N1CCC[C@H]1C(=O)N[C@@H](Cc1ccccc1)C(=O)O [APF, Ala-Pro-Phe] (H-Ala-Pro-Phe-OH; N-terminus and C-terminus assumed) ?
Result :: NO

Query :: Which Peptide hydrolyzed by DPP-IV value belongs to C[C@H](N)C(=O)N1CCC[C@H]1C(=O)N[C@@H](CCCNC(=N)N)C(=O)O [APR, Ala-Pro-Arg] (H-Ala-Pro-Arg-OH; N-terminus and C-terminus assumed) ?
Result :: NO

Query :: Which Peptide hydrolyzed by DPP-IV value belongs to CC[C@H](C)[C@H](N)C(=O)N1CCC[C@H]1C(=O)N[C@@H](Cc1c[nH]c2ccccc12)C(=O)O [IPW, Ile-Pro-Trp] (H-Ile-Pro-Trp-OH; N-terminus and C-terminus assumed) ?
Result :: YES

Query :: Which Peptide hydrolyzed by DPP-IV value belongs to CC[C@H](C)[C@H](N)C(=O)N1CCC[C@H]1C(=O)N[C@@H](Cc1ccccc1)C(=O)O [IPF, Ile-Pro-Phe] (H-Ile-Pro-Phe-OH; N-terminus and C-terminus assumed) ?
Result :: YES
